- System: HT29
- experiment_description: MTT cell proliferation test, cytotoxicity on HT29 colon cancer cells
- Assay type: cell-based
- experimental_parameters: HT29, 72 hrs incubation, read-out: IC50 μmole/L, after 72 hrs incubation time
property: pIC50
Please report pIC50 as the negative decimal logarithm of the molar concentration, giving only the number.

Prompt: Send back HT29 pIC50 of CCc1c2c(nc3ccc(O)c(CN4CCC4)c13)-c1cc3c(c(=O)n1[C@H]2CO)COC(=O)C3(O)CC (stereo partly drawn) only.
Response: 5.16

Prompt: Send back HT29 pIC50 of CCc1c2c(nc3ccc(O)c(CN4CCC4)c13)-c1cc3c(c(=O)n1[C@@H]2CO)COC(=O)[C@]3(O)CC only.
Response: 5.60

Prompt: Send back HT29 pIC50 of CCc1c2c(nc3ccc(O)c(CN4CCC4)c13)-c1cc3c(c(=O)n1C2)COC(=O)C3(O)CC (stereo not drawn) [CC1, reference compound] only.
Response: 7.15

The origin of these recorded values is patent US12091417B2.
